Numbers sourced from paper PMC7220363.

Here, each record is paired with measured Selectivity data.
Target: mTOR enzyme (Homo sapiens)
Experiment: mTOR enzyme assay
Format: biochemical
Details: PI3Kα IC50 relative to mTOR IC50 (table column)
parameter-measured: Selectivity

compound: COC(=O)CCSc1nc2n(n1)C(c1cc(C)cc(C)c1)C(C(=O)Nc1cncc(C)c1)=C(C)N2 (stereo not shown)
recorded-result: 0.8
//
compound: COc1cccc(C2C(C(=O)Nc3ccc(C(C)=O)cc3)=C(C)Nc3nc(SCCC4OCCO4)nn32)c1 (stereo not shown)
recorded-result: 5
//
compound: COC(=O)CCSc1nc2n(n1)C(c1cccc(OC)c1)C(C(=O)Nc1cccc(C(C)=O)c1)=C(C)N2 (stereo not shown)
recorded-result: 10
//
compound: COc1cccc(C2C(C(=O)Nc3cncc(C)c3)=C(C)Nc3nc(SCCC4OCCO4)nn32)c1 (stereo not shown)
recorded-result: 7

----------
# IC50 per record follows
Biological target: PI3Kα (p110α/p85α) (Homo sapiens)
Sequence (P42336 whole entry): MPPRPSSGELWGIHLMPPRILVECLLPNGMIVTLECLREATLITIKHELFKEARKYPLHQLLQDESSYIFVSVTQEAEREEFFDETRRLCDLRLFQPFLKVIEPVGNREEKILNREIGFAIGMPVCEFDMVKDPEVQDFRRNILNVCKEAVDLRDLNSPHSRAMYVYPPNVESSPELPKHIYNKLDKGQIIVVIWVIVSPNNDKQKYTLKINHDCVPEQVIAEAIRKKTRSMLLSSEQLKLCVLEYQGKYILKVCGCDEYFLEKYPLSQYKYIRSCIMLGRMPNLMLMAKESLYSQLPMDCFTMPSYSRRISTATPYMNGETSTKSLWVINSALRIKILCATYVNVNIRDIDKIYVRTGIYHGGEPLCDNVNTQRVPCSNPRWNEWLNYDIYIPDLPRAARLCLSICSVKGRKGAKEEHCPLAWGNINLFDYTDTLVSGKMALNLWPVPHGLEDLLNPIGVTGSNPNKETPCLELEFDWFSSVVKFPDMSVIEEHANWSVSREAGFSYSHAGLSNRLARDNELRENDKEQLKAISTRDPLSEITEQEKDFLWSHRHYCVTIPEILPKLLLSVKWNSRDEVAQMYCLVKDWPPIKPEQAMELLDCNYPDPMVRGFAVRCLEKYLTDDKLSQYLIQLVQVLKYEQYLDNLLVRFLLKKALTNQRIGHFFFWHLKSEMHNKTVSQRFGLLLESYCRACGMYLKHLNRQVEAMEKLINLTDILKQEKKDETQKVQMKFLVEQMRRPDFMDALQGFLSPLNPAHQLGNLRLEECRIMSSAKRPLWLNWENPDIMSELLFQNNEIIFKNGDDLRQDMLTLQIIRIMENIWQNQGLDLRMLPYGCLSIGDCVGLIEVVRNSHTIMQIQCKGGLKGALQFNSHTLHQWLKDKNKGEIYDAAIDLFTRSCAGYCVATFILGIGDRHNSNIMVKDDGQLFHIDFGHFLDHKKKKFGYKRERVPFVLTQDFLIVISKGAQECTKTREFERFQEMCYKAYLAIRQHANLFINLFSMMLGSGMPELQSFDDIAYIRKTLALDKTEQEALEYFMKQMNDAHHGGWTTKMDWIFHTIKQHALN
Sequence (P27986 whole entry partner): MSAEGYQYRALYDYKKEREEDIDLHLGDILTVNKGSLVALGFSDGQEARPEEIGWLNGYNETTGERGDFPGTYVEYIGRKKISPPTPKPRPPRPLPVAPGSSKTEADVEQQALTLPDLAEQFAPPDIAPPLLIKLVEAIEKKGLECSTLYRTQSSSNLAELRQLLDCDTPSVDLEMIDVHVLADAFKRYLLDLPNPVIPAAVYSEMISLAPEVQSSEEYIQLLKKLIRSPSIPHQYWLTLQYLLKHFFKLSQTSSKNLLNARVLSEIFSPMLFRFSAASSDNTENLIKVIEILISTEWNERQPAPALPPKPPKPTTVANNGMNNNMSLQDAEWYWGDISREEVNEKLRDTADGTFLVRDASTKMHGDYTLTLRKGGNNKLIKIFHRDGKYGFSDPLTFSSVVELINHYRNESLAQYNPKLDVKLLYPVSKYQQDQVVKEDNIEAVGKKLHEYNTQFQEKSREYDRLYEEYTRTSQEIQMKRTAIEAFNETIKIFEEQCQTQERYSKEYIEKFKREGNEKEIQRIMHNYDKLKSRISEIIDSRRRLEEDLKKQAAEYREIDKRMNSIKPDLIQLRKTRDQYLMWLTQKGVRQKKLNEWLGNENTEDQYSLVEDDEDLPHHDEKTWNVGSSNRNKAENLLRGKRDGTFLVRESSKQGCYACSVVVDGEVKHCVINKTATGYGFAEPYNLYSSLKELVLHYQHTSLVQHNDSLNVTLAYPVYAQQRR
Experiment: PI3Kα enzyme assay

molecule: COc1cccc(C2C(C(=O)Nc3cccc(F)c3)=C(C)Nc3nc(SCCC4OCCO4)nn32)c1 (centres unmarked)
IC50, nM: 844
--
molecule: COC(=O)CCSc1nc2n(n1)C(c1cccc(OC)c1)C(C(=O)Nc1cccc(C(C)=O)c1)=C(C)N2 (centres unmarked)
IC50, nM: 228
--
molecule: COC(=O)CCSc1nc2n(n1)C(c1cccc(OC)c1)C(C(=O)Nc1ccc(C(C)=O)cc1)=C(C)N2 (centres unmarked)
IC50, nM: 254
--
molecule: COC(=O)CCSc1nc2n(n1)C(c1ccccc1)C(C(=O)Nc1cncc(C)c1)=C(C)N2 (centres unmarked)
IC50, nM: 703
--
molecule: COc1ccc(NC(=O)C2=C(C)Nc3nc(SCCC4OCCO4)nn3C2c2cccc(OC)c2)cc1 (centres unmarked)
IC50, nM: 3200
--
molecule: COC(=O)CCSc1nc2n(n1)C(c1cccc(O)c1)C(C(=O)Nc1cncc(C)c1)=C(C)N2 (centres unmarked)
IC50, nM: 3560
--
molecule: COC(=O)CCSc1nc2n(n1)C(c1cccc(F)c1)C(C(=O)Nc1cncc(C)c1)=C(C)N2 (centres unmarked)
IC50, nM: 738
--
molecule: COCCCSc1nc2n(n1)C(c1cccc(OC)c1)C(C(=O)Nc1cccnc1)=C(C)N2 (centres unmarked)
IC50, nM: 1580

----------
Selectivity values for the molecules below.
Biological target: UniProt P42345
Assay: mTOR enzyme assay
Type: biochemical
Conditions: PI3Kα IC50 relative to mTOR IC50 (table column)
parameter-measured: Selectivity

molecule: COCCCSc1nc2n(n1)C(c1cccc(OC)c1)C(C(=O)Nc1cccnc1)=C(C)N2 (centres unmarked)
parameter-measured: Selectivity
qualifier: =
recorded-result: 9

molecule: COC(=O)CCSc1nc2n(n1)C(c1ccccc1C)C(C(=O)Nc1cncc(C)c1)=C(C)N2 (centres unmarked)
parameter-measured: Selectivity
qualifier: =
recorded-result: 6

molecule: COC(=O)CCSc1nc2n(n1)C(c1cccc(OC)c1)C(C(=O)Nc1ccc(C(C)=O)cc1)=C(C)N2 (centres unmarked)
parameter-measured: Selectivity
qualifier: =
recorded-result: 4

molecule: COc1cccc(C2C(C(=O)Nc3cccc(C(C)=O)c3)=C(C)Nc3nc(SCCC4OCCO4)nn32)c1 (centres unmarked)
parameter-measured: Selectivity
qualifier: =
recorded-result: 29

molecule: COC(=O)CCSc1nc2n(n1)C(c1cccc(O)c1)C(C(=O)Nc1cncc(C)c1)=C(C)N2 (centres unmarked)
parameter-measured: Selectivity
qualifier: =
recorded-result: 14

molecule: COc1ccc(NC(=O)C2=C(C)Nc3nc(SCCC4OCCO4)nn3C2c2cccc(OC)c2)cc1 (centres unmarked)
parameter-measured: Selectivity
qualifier: =
recorded-result: 9

molecule: COC(=O)CCSc1nc2n(n1)C(c1ccc(F)cc1)C(C(=O)Nc1cncc(C)c1)=C(C)N2 (centres unmarked)
parameter-measured: Selectivity
qualifier: >
recorded-result: 6

molecule: COC(=O)CCSc1nc2n(n1)C(c1ccc(O)cc1)C(C(=O)Nc1cncc(C)c1)=C(C)N2 (centres unmarked)
parameter-measured: Selectivity
qualifier: >
recorded-result: 5

----------
Target: mTOR enzyme (Homo sapiens, UniProt P42345)
Assay: mTOR enzyme assay
Format: biochemical
Conditions: PI3Kα IC50 relative to mTOR IC50 (table column)
Respond with Satisfied for Selectivity values of 8 and above, Not satisfied for values below.

molecule: COC(=O)CCSc1nc2n(n1)C(c1cccc(OC)c1)C(C(=O)Nc1cccc(F)c1)=C(C)N2 (stereo not shown)
label: Not satisfied
//
molecule: COc1cccc(C2C(C(=O)Nc3cccnc3)=C(C)Nc3nc(SCCC4OCCO4)nn32)c1 (stereo not shown)
label: Satisfied
//
molecule: COC(=O)CCSc1nc2n(n1)C(c1ccccc1)C(C(=O)Nc1cncc(C)c1)=C(C)N2 (stereo not shown)
label: Not satisfied
//
molecule: COc1cccc(C2C(C(=O)Nc3cccc(F)c3)=C(C)Nc3nc(SCCC4OCCO4)nn32)c1 (stereo not shown)
label: Not satisfied
//
molecule: COC(=O)CCSc1nc2n(n1)C(c1cccc(F)c1)C(C(=O)Nc1cncc(C)c1)=C(C)N2 (stereo not shown)
label: Not satisfied

----------
Biological target: PI3Kα (p110α/p85α) (Homo sapiens)
Experiment: PI3Kα enzyme assay
Assay type: biochemical
pIC50: −log10 of the molar value.
Please note: t applies when pIC50 is 6 or greater, and f applies otherwise.

compound: COC(=O)CCSc1nc2n(n1)C(c1ccc(O)cc1)C(C(=O)Nc1cncc(C)c1)=C(C)N2 (centres unmarked)
label: f
--
compound: COC(=O)CCSc1nc2n(n1)C(c1ccc(C)cc1)C(C(=O)Nc1cncc(C)c1)=C(C)N2 (centres unmarked)
label: f
--
compound: COc1cccc(C2C(C(=O)Nc3cccc(C(C)=O)c3)=C(C)Nc3nc(SCCC4OCCO4)nn32)c1 (centres unmarked)
label: f
--
compound: COC(=O)CCSc1nc2n(n1)C(c1cccc(OC)c1)C(C(=O)Nc1cccc(F)c1)=C(C)N2 (centres unmarked)
label: t
--
compound: COC(=O)CCSc1nc2n(n1)C(c1ccc(F)cc1)C(C(=O)Nc1cncc(C)c1)=C(C)N2 (centres unmarked)
label: f
--
compound: COC(=O)CCSc1nc2n(n1)C(c1ccccc1C)C(C(=O)Nc1cncc(C)c1)=C(C)N2 (centres unmarked)
label: f
--
compound: COc1cccc(C2C(C(=O)Nc3cncc(C)c3)=C(C)Nc3nc(SCCC4OCCO4)nn32)c1 (centres unmarked)
label: t
--
compound: COC(=O)CCSc1nc2n(n1)C(c1cc(C)cc(C)c1)C(C(=O)Nc1cncc(C)c1)=C(C)N2 (centres unmarked)
label: t

----------
Biological target: mTOR enzyme (Homo sapiens, UniProt P42345)
Under this convention, criterion met denotes IC50 strictly below 0.1 µM and criterion not met denotes IC50 at or above 0.1 µM.

compound: COC(=O)CCSc1nc2n(n1)C(c1cccc(OC)c1)C(C(=O)Nc1cccc(C(C)=O)c1)=C(C)N2 (stereo not shown)
label: criterion met
--
compound: COC(=O)CCSc1nc2n(n1)C(c1ccc(O)cc1)C(C(=O)Nc1cncc(C)c1)=C(C)N2 (stereo not shown)
label: criterion not met
--
compound: COc1cccc(C2C(C(=O)Nc3cccc(F)c3)=C(C)Nc3nc(SCCC4OCCO4)nn32)c1 (stereo not shown)
label: criterion not met
--
compound: COC(=O)CCSc1nc2n(n1)C(c1ccccc1C)C(C(=O)Nc1cncc(C)c1)=C(C)N2 (stereo not shown)
label: criterion not met
--
compound: COC(=O)CCSc1nc2n(n1)C(c1ccc(F)cc1)C(C(=O)Nc1cncc(C)c1)=C(C)N2 (stereo not shown)
label: criterion not met
--
compound: COC(=O)CCSc1nc2n(n1)C(c1ccc(C)cc1)C(C(=O)Nc1cncc(C)c1)=C(C)N2 (stereo not shown)
label: criterion not met
--
compound: COC(=O)CCSc1nc2n(n1)C(c1ccccc1)C(C(=O)Nc1cncc(C)c1)=C(C)N2 (stereo not shown)
label: criterion not met
--
compound: COc1ccc(NC(=O)C2=C(C)Nc3nc(SCCC4OCCO4)nn3C2c2cccc(OC)c2)cc1 (stereo not shown)
label: criterion not met
--
compound: COC(=O)CCSc1nc2n(n1)C(c1cccc(OC)c1)C(C(=O)Nc1cccc(F)c1)=C(C)N2 (stereo not shown)
label: criterion not met
--
compound: COC(=O)CCSc1nc2n(n1)C(c1cccc(O)c1)C(C(=O)Nc1cncc(C)c1)=C(C)N2 (stereo not shown)
label: criterion not met
--
compound: COC(=O)CCSc1nc2n(n1)C(c1cc(C)cc(C)c1)C(C(=O)Nc1cncc(C)c1)=C(C)N2 (stereo not shown)
label: criterion not met
--
compound: COc1cccc(C2C(C(=O)Nc3cncc(C)c3)=C(C)Nc3nc(SCCC4OCCO4)nn32)c1 (stereo not shown)
label: criterion met
--
compound: COc1cccc(C2C(C(=O)Nc3ccc(C(C)=O)cc3)=C(C)Nc3nc(SCCC4OCCO4)nn32)c1 (stereo not shown)
label: criterion not met
--
compound: COC(=O)CCSc1nc2n(n1)C(c1cccc(F)c1)C(C(=O)Nc1cncc(C)c1)=C(C)N2 (stereo not shown)
label: criterion not met
--
compound: COc1cccc(C2C(C(=O)Nc3cccc(C(C)=O)c3)=C(C)Nc3nc(SCCC4OCCO4)nn32)c1 (stereo not shown)
label: criterion met
--
compound: COCCCSc1nc2n(n1)C(c1cccc(OC)c1)C(C(=O)Nc1cccnc1)=C(C)N2 (stereo not shown)
label: criterion not met
--
compound: COC(=O)CCSc1nc2n(n1)C(c1cccc(OC)c1)C(C(=O)Nc1ccc(OC)cc1)=C(C)N2 (stereo not shown)
label: criterion not met
--
compound: COC(=O)CCSc1nc2n(n1)C(c1cccc(OC)c1)C(C(=O)Nc1ccc(C(C)=O)cc1)=C(C)N2 (stereo not shown)
label: criterion met
--
compound: COc1cccc(C2C(C(=O)Nc3cccnc3)=C(C)Nc3nc(SCCC4OCCO4)nn32)c1 (stereo not shown)
label: criterion met
